- subjectOfTest: DOR (Homo sapiens, UniProt P41143)
- Construct: host or cells: CHO (CHO-hDOR)
- Sequence (P41143 whole entry): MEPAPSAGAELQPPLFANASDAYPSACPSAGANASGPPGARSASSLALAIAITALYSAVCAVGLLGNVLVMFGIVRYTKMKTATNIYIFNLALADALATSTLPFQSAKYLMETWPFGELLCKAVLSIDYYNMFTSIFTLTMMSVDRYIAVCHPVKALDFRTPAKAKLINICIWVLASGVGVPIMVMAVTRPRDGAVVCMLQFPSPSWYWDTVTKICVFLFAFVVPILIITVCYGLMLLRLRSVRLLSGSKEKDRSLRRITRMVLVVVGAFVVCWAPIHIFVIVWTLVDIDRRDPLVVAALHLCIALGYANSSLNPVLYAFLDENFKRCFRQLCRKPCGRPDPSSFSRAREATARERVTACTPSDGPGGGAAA
- testSummary: competition radioligand binding, CHO cell membranes expressing human DOR, [3H]diprenorphine
Criterion met if Ki is below 10 nM. Criterion not met if not; exact matches included in Criterion not met.

[ask] State whether 10 nM exceeds Ki recorded for CO[C@@]12CC[C@H](NC(C)C(=O)O)[C@@H]3Oc4c(O)ccc5c4[C@@]31CCN(C)[C@@H]2C5 (stereo in doubt) [Compound 15a] .
[reply] Criterion not met

[ask] Problem: For the compound CO[C@@]12CC[C@@H](N[C@H](Cc3ccccc3)C(=O)O)[C@@H]3Oc4c(O)ccc5c4[C@@]31CCN(C)[C@@H]2C5 [Compound 17b] , is Ki under 10 nM?
[reply] Criterion met

[ask] API: query returns whether the compound falls strictly under 10 nM in Ki. Query: CO[C@@]12CC[C@H](N[C@@H](C)C(=O)O)[C@@H]3Oc4c(O)ccc5c4[C@@]31CCN(C)[C@@H]2C5 [Compound 3a]
[reply] Criterion not met

[ask] is_below(Ki, 10 nM) for CO[C@@]12CC[C@H](NCC(=O)O)[C@@H]3Oc4c(O)ccc5c4[C@@]31CCN(C)[C@@H]2C5 [Compound 2a] ?
[reply] Criterion not met

[ask] Record CO[C@@]12CC[C@H](N[C@H](Cc3ccccc3)C(=O)O)[C@@H]3Oc4c(O)ccc5c4[C@@]31CCN(C)[C@@H]2C5 [Compound 17a] : is its Ki strictly below 10 nM?
[reply] Criterion met

[ask] Threshold test, Ki < 10 nM: CO[C@@]12CC[C@H](N[C@@H](Cc3ccccc3)C(=O)O)[C@@H]3Oc4c(O)ccc5c4[C@@]31CCN(C)[C@@H]2C5 [Compound 4a]
[reply] Criterion met

[ask] Hello, I'm reviewing records and need to know if Ki of CO[C@@]12CC[C@@H](N[C@@H](C)C(=O)O)[C@@H]3Oc4c(O)ccc5c4[C@@]31CCN(C)[C@@H]2C5 [Compound 3b] is below 10 nM. Could you check?
[reply] Criterion met

====

- subjectOfTest: MOR (Rattus norvegicus, UniProt P33535)
- Construct: Membranes were prepared from Sprague-Dawley rat brains or guinea-pig brains according to the described procedures; tissue Labortierkunde und Laborgenetik, Medizinische Universität Wien; host or cells: Sprague-Dawley rat brain without cerebella
- Sequence (P33535 whole entry): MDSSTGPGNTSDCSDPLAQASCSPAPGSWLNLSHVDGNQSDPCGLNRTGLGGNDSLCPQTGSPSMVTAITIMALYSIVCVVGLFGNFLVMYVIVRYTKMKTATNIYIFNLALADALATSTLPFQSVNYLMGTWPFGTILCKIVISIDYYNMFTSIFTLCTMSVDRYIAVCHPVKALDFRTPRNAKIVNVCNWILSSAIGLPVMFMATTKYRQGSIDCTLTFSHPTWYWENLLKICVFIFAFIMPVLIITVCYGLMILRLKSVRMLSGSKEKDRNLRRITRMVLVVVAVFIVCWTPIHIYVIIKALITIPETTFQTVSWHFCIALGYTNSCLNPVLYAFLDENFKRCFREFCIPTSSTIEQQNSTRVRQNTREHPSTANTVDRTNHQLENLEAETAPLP
- testSummary: competition radioligand binding, rat brain membranes, [3H]DAMGO
- conditionDetails: rat brain; 17b vs 4b; 16a/b vs 7a/b; 22a/b vs 7a, 7b and 9b; 14a vs 14b
Field: increase in MOR binding affinity vs comparator. Provide a value for each of the molecules that follow.

[ask] Which increase in MOR binding affinity vs comparator is reported for this molecule? CO[C@@]12CC[C@H](N[C@@H](C(=O)O)C(C)C)[C@@H]3Oc4c(O)ccc5c4[C@@]31CCN(C)[C@@H]2C5 [Compound 16a]
[reply] 2–3 times

[ask] Using the record for CO[C@@]12CC[C@@H](N[C@H](C(=O)N[C@@H](Cc3ccc(O)cc3)C(=O)O)C(C)C)[C@@H]3Oc4c(O)ccc5c4[C@@]31CCN(C)[C@@H]2C5 [Compound 22b] , report its increase in MOR binding affinity vs comparator.
[reply] 4 to 7 times

[ask] What value of increase in MOR binding affinity vs comparator has been recorded for this entry: CO[C@@]12CCC(N[C@@H](CCC(=O)O)C(=O)O)[C@@H]3Oc4c(O)ccc5c4[C@@]31CCN(C)[C@@H]2C5 (stereo in doubt) [Compound 14a]
[reply] 8 times

[ask] Can you share its increase in MOR binding affinity vs comparator? I mean this molecule: CO[C@@]12CC[C@H](N[C@H](C(=O)N[C@@H](Cc3ccc(O)cc3)C(=O)O)C(C)C)[C@@H]3Oc4c(O)ccc5c4[C@@]31CCN(C)[C@@H]2C5 [Compound 22a]
[reply] 4 to 7 times

[ask] Request the reported increase in MOR binding affinity vs comparator associated with CO[C@@]12CC[C@@H](N[C@@H](C(=O)O)C(C)C)[C@@H]3Oc4c(O)ccc5c4[C@@]31CCN(C)[C@@H]2C5 [Compound 16b]
[reply] 2–3 times

====

- subjectOfTest: MOR (Homo sapiens)
- Construct: host or cells: CHO (CHO-hMOR)
- Sequence (P35372 whole entry): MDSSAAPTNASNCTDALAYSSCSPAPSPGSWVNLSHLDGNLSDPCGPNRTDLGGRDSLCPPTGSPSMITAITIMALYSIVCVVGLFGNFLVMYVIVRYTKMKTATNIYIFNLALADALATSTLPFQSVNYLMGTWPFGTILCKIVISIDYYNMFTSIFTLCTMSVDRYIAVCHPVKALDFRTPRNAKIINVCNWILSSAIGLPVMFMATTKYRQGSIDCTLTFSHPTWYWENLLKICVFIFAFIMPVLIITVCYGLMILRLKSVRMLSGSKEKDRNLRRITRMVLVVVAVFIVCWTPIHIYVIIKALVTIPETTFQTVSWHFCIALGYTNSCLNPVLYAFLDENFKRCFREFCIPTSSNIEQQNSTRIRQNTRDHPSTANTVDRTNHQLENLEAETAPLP
- testSummary: [35S]GTPγS binding assay, CHO-hMOR membranes
- Format: biochemical
- conditionDetails: [35S]GTPγS, CHO human MOR membranes; read-out: MOR EC50
Consider the following molecules; for each one, report its pEC50.
Worth noting: pEC50 values are minus log10 of concentrations stated in mol/L.

[ask] Request the reported pEC50 associated with CO[C@@]12CC[C@H](N[C@@H](CC(N)=O)C(=O)O)[C@@H]3Oc4c(O)ccc5c4[C@@]31CCN(C)[C@@H]2C5 [Compound 11a]
[reply] 9.08

[ask] Please look up its pEC50: CO[C@@]12CC[C@H](N[C@@H](CC(=O)O)C(=O)O)[C@@H]3Oc4c(O)ccc5c4[C@@]31CCN(C)[C@@H]2C5 [Compound 13a]
[reply] 8.39

[ask] # get_value(readout='pEC50', item= CO[C@@]12CC[C@@H](N[C@H](Cc3ccccc3)C(=O)O)[C@@H]3Oc4c(O)ccc5c4[C@@]31CCN(C)[C@@H]2C5 [Compound 17b] )
[reply] 9.17

[ask] Which measured pEC50 value corresponds to CO[C@@]12CC[C@H](N[C@H](C(=O)N[C@@H](Cc3ccc(O)cc3)C(=O)O)C(C)C)[C@@H]3Oc4c(O)ccc5c4[C@@]31CCN(C)[C@@H]2C5 [Compound 22a] ?
[reply] 9.05

[ask] Recorded pEC50 for CO[C@@]12CC[C@@H](N[C@@H](Cc3ccccc3)C(=O)O)[C@@H]3Oc4c(O)ccc5c4[C@@]31CCN(C)[C@@H]2C5 [Compound 4b] , please?
[reply] 8.17

[ask] I would be grateful if you could share the reported pEC50 for CO[C@@]12CC[C@@H](N[C@@H](CC(=O)O)C(=O)O)[C@@H]3Oc4c(O)ccc5c4[C@@]31CCN(C)[C@@H]2C5 [Compound 13b] .
[reply] 8.84

[ask] Look at this molecule and give its reported pEC50. CO[C@@]12CC[C@@H](N[C@@H](CC(N)=O)C(=O)O)[C@@H]3Oc4c(O)ccc5c4[C@@]31CCN(C)[C@@H]2C5 [Compound 11b]
[reply] 8.69

[ask] I'd like to know its pEC50. The molecule in question is CO[C@@]12CC[C@@H](NCC(=O)NCC(=O)O)[C@@H]3Oc4c(O)ccc5c4[C@@]31CCN(C)[C@@H]2C5 [Compound 23a]
[reply] 8.36

[ask] Suppose we examine the molecule CO[C@@]12CC[C@@H](N[C@@H](CCC(N)=O)C(=O)O)[C@@H]3Oc4c(O)ccc5c4[C@@]31CCN(C)[C@@H]2C5.Cl.Cl [Compound 12b] ; what pEC50 value has been reported?
[reply] 8.02

[ask] Reported pEC50, molecule CO[C@@]12CC[C@@H](NCCC(=O)O)[C@@H]3Oc4c(O)ccc5c4[C@@]31CCN(C)[C@@H]2C5 [Compound 20b] : ____
[reply] 8.24

[ask] If you can, please state the reported pEC50 value of CO[C@@]12CC[C@@H](NCCCC(=O)O)[C@@H]3Oc4c(O)ccc5c4[C@@]31CCN(C)[C@@H]2C5 [Compound 21b] .
[reply] 7.91

[ask] Using the record for CO[C@@]12CC[C@@H](N[C@H](C(=O)O)C3CCCCC3)[C@@H]3Oc4c(O)ccc5c4[C@@]31CCN(C)[C@@H]2C5 [Compound 18b] , report its pEC50.
[reply] 8.27

[ask] Returns the measured pEC50 for the input molecule. Input: CO[C@@]12CC[C@H](N[C@H](C(=O)O)C3CCCCC3)[C@@H]3Oc4c(O)ccc5c4[C@@]31CCN(C)[C@@H]2C5 [Compound 18a]
[reply] 8.54

[ask] Suppose we examine the molecule CO[C@@]12CC[C@@H](N[C@@H](CO)C(=O)O)[C@@H]3Oc4c(O)ccc5c4[C@@]31CCN(C)[C@@H]2C5 [Compound 6b] ; what pEC50 value has been reported?
[reply] 8.45

[ask] Query (molecule): CC[C@H](N[C@H]1CC[C@@]2(OC)[C@H]3Cc4ccc(O)c5c4[C@@]2(CCN3C)[C@H]1O5)C(=O)O [Compound 19a] ; field requested: pEC50
[reply] 8.29

[ask] I would be grateful if you could share the reported pEC50 for CO[C@@]12CC[C@H](N[C@@H](CO)C(=O)O)[C@@H]3Oc4c(O)ccc5c4[C@@]31CCN(C)[C@@H]2C5 [Compound 6a] .
[reply] 8.80

[ask] # query: pEC50 of entry CO[C@@]12CC[C@@H](N[C@@H](Cc3c[nH]c4ccccc34)C(=O)O)[C@@H]3Oc4c(O)ccc5c4[C@@]31CCN(C)[C@@H]2C5 [Compound 10b]
[reply] 8.79

Data credit: paper PMC6348443
